Where do the numbers come from? From ChEMBL document CHEMBL4627301.

TARGET_ENTITY: Indoleamine 2,3-dioxygenase 1 (Homo sapiens)
EXPERIMENTAL_DETAILS: Inhibition of IDO1 in IFN-gamma stimulated human HeLa cells assessed as reduction in kynurenine formation using L-tryptophan as substrate incubated for 24 hrs by UV-spectrophotometry
MEASUREMENT_LABEL: EC50 (nM)
Numbers only, in nM.

Use these answered entries as a reference point.
COMPOUND: O=S(=O)(CCNc1nonc1/C(=N/O)Nc1ccc(F)c(Br)c1)NCC(F)(F)F
MEASUREMENT_LABEL: EC50
READING_UNIT: nM
RECORDED_NUMBER: 268

COMPOUND: [O-][S+]1CC(Nc2nonc2/C(=N/O)Nc2ccc(F)c(Br)c2)C1 (stereo not given)
MEASUREMENT_LABEL: EC50
READING_UNIT: nM
RECORDED_NUMBER: 79

COMPOUND: O=S(=O)(CCNc1nonc1/C(=N/O)Nc1ccc(F)c(Br)c1)NCC1CC1
MEASUREMENT_LABEL: EC50
READING_UNIT: nM
RECORDED_NUMBER: 268

COMPOUND: CN(C)S(=O)(=O)CCCNc1nonc1/C(=N/O)Nc1ccc(F)c(Br)c1
MEASUREMENT_LABEL: EC50
READING_UNIT: nM
RECORDED_NUMBER: 20

Attention now turns to another entry.
Supply recorded EC50 for CN(C)S(=O)(=O)CCNc1nonc1/C(=N/O)Nc1ccc(F)c(Br)c1 here.
17

###

TARGET_ENTITY: Indoleamine 2,3-dioxygenase 1 (Homo sapiens, UniProt P14902)
Sequence (P14902 whole entry): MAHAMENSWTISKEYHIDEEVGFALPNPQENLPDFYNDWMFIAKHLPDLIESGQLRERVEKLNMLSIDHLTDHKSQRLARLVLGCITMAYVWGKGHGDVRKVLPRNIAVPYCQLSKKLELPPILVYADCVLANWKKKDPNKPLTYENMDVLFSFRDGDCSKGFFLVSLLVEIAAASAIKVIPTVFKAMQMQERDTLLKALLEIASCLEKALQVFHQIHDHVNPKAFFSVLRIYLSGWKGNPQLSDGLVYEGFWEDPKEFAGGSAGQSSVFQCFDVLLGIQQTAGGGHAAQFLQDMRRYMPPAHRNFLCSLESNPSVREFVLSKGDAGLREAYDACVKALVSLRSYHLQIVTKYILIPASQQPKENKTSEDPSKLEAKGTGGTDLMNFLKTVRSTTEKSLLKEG
EXPERIMENTAL_DETAILS: Inhibition of IDO1 in IFN-gamma stimulated human HeLa cells assessed as reduction in kynurenine formation using L-tryptophan as substrate incubated for 24 hrs by UV-spectrophotometry
MEASUREMENT_LABEL: EC50

MOLECULE: NS(=O)(=O)NNc1nonc1/C(=N/O)Nc1ccc(F)c(Br)c1
MEASUREMENT_LABEL: EC50
RESULT: 101 nM

Hi there! I need EC50 for each item below, if you can.
1. CCNS(=O)(=O)CCNc1nonc1/C(=N/O)Nc1ccc(F)c(Br)c1
2. O=S(=O)(CCNc1nonc1/C(=N/O)Nc1ccc(F)c(Br)c1)N1CCC1
3. CS(=O)(=O)NNc1nonc1/C(=N/O)Nc1ccc(F)c(Br)c1
4. N#CN=S1CC(Nc2nonc2/C(=N/O)Nc2ccc(F)c(Br)c2)C1 (stereo not given)

1. 41 nM
2. 143 nM
3. > 800 nM
4. 73 nM

###

TARGET_ENTITY: Indoleamine 2,3-dioxygenase 1 (Homo sapiens, UniProt P14902)
MEASUREMENT_LABEL: pIC50
One number for each entry, as −log10 of the molar value.

Use these answered entries as a reference point.
MOLECULE: N=S1(=O)CC(Nc2nonc2/C(=N/O)Nc2ccc(F)c(Br)c2)C1 (stereo not drawn)
pIC50: 6.68
--
MOLECULE: N#CN=S1CC(Nc2nonc2/C(=N/O)Nc2ccc(F)c(Br)c2)C1 (stereo not drawn)
pIC50: 7.16
--
MOLECULE: NNc1nonc1/C(=N/O)Nc1ccc(F)c(Br)c1
pIC50: 6.97
--
MOLECULE: CN(C)S(=O)(=O)CCNc1nonc1/C(=N/O)Nc1ccc(F)c(Br)c1
pIC50: 6.98

Hi there! I need pIC50 for each item below, if you can.
1. CS(=O)(=O)NNc1nonc1/C(=N/O)Nc1ccc(F)c(Br)c1
2. O=S(=O)(CCNc1nonc1/C(=N/O)Nc1ccc(F)c(Br)c1)NO

[6.22, 6.90]

Hi there! I need pIC50 for each item below, if you can.
1. O=S(=O)(CCNc1nonc1/C(=N/O)Nc1ccc(F)c(Br)c1)NCC(F)(F)F
2. O=S(=O)(CCNc1nonc1/C(=N/O)Nc1ccc(F)c(Br)c1)N1CCC1

1: 6.85; 2: 6.72

###

TARGET_ENTITY: Indoleamine 2,3-dioxygenase 1 (Homo sapiens, UniProt P14902)
EXPERIMENTAL_DETAILS: Inhibition of IDO1 in IFN-gamma stimulated human HeLa cells assessed as reduction in kynurenine formation using L-tryptophan as substrate incubated for 24 hrs by UV-spectrophotometry
MEASUREMENT_LABEL: log10 of EC50 (log10 of the value in nM)
On a log10 scale: recorded EC50, unit nM.

MOLECULE: NS(=O)(=O)CCONc1nonc1/C(=N/O)Nc1ccc(F)c(Br)c1
RECORDED_NUMBER: 1.43
//
MOLECULE: NNc1nonc1/C(=N/O)Nc1ccc(F)c(Br)c1
RECORDED_NUMBER: 2.75
//
MOLECULE: N=S1(=O)CC(Nc2nonc2/C(=N/O)Nc2ccc(F)c(Br)c2)C1 (centres undefined)
RECORDED_NUMBER: 1.72
//
MOLECULE: O=S1(=O)CC(Nc2nonc2/C(=N/O)Nc2ccc(F)c(Br)c2)C1
RECORDED_NUMBER: 1.77
//
MOLECULE: C#CCNS(=O)(=O)CCNc1nonc1/C(=N/O)Nc1ccc(F)c(Br)c1
RECORDED_NUMBER: 1.52

Hi there! I need log10 of EC50 for each item below, if you can.
1. NS(=O)(=O)CCCNc1nonc1/C(=N/O)Nc1ccc(F)c(Br)c1
2. NS(=O)(=O)CCNc1nonc1/C(=N/O)Nc1ccc(F)c(Br)c1

1. 1.18
2. 1.04
